target.or.system: PDE III (Homo sapiens)
Construct: The Type III PDE is isolated from human platelets
Sequence (Q14432 whole entry): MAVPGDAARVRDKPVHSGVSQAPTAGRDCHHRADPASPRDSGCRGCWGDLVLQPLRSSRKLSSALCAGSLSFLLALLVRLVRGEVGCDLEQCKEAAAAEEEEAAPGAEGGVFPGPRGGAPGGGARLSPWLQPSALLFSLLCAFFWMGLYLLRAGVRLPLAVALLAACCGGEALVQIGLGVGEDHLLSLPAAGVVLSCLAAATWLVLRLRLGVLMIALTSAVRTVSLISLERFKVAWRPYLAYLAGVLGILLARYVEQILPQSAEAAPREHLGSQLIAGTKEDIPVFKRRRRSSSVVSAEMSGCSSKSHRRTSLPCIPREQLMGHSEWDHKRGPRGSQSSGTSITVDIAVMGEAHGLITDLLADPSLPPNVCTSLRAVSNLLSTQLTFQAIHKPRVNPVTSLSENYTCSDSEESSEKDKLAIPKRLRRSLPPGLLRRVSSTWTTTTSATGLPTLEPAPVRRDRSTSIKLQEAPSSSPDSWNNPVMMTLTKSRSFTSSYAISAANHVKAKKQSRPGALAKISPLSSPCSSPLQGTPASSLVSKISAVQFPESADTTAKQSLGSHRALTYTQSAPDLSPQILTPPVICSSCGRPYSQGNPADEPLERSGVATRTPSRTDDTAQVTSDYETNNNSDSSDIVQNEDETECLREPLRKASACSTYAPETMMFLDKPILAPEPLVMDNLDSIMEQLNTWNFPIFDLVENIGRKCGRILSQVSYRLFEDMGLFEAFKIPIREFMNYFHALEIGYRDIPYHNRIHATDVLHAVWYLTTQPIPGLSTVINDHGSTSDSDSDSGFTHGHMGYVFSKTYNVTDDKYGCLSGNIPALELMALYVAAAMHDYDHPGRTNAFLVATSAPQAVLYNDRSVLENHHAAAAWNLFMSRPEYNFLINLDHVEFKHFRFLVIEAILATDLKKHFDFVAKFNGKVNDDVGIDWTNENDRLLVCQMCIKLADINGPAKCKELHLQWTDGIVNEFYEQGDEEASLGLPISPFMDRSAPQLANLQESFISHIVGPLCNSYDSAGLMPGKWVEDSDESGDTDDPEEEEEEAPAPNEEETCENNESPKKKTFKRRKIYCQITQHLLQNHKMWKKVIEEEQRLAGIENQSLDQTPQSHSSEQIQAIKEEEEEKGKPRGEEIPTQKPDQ
assay: Type III PDE inhibition, hydrolysis of [3H]-cyclic AMP (enzyme isolated from human platelets)
conditions: human platelet enzyme; cAMP 0.2 μM; DMSO 2.5%
pIC50: −log10 of the molar value. Structures can show the parent of a compound that is named as a salt.
value.type: pIC50

[[record]]
compound = "CCCn1c(SCSc2nc(NC3CCCC3)c3nc(C4CC4)nc-3n2CCC)nc(NC2CCCC2)c2nc(C3CC3)nc1-2 [Example 1, dihydrochloride]"
value_type = "pIC50"
measured = 3.87

[[record]]
compound = "CCCn1c(SCSc2nc(NCc3ccncc3)c3nc(C4CC4)nc-3n2CCC)nc(NCc2ccncc2)c2nc(C3CC3)nc1-2 [Example 2]"
value_type = "pIC50"
measured = 4.24

